system: Mus musculus; test: Plasma concentration in mouse at 1 mg/kg, po after 30 mins

# query smiles, concentration at 0.5 h
data = [
    ("Cc1c(-c2ccc3c(c2)CN(C(C)C)C3=O)nnn1-c1ccc(F)cc1F", "170 nM"),
]

====

experiment: Oral bioavailability in rat at 1 mg/kg; assay type: ADME, organism-based; settings: in vivo
measurement type: bioavailability (%)

# query smiles, measurement type, experimental value
records = [
    ("Cc1c(-c2ccc3c(c2)CN(C(C)C)C3=O)nnn1-c1ccc(F)cc1F", "bioavailability", 46),
]

====

assay: Plasma clearance in rat at 1 mg/kg, po and 0.3 mg/kg, iv; type: ADME, organism-based

# query smiles, clearance [mL/min/kg]
rows = [
    ("Cc1c(-c2ccc3c(c2)CN(C(C)C)C3=O)nnn1-c1ccc(F)cc1F", 20),
]

====

A collection of compounds and their measured pIC50
target: Metabotropic glutamate receptor 1 (Homo sapiens, UniProt Q13255); assay: Antagonist activity at human mGluR1 receptor expressed in CHO cell membranes assessed as inhibition of L-glutamate-induced calcium mobilization by FLIPR; type: functional, cell-based
Sequence (Q13255 whole entry): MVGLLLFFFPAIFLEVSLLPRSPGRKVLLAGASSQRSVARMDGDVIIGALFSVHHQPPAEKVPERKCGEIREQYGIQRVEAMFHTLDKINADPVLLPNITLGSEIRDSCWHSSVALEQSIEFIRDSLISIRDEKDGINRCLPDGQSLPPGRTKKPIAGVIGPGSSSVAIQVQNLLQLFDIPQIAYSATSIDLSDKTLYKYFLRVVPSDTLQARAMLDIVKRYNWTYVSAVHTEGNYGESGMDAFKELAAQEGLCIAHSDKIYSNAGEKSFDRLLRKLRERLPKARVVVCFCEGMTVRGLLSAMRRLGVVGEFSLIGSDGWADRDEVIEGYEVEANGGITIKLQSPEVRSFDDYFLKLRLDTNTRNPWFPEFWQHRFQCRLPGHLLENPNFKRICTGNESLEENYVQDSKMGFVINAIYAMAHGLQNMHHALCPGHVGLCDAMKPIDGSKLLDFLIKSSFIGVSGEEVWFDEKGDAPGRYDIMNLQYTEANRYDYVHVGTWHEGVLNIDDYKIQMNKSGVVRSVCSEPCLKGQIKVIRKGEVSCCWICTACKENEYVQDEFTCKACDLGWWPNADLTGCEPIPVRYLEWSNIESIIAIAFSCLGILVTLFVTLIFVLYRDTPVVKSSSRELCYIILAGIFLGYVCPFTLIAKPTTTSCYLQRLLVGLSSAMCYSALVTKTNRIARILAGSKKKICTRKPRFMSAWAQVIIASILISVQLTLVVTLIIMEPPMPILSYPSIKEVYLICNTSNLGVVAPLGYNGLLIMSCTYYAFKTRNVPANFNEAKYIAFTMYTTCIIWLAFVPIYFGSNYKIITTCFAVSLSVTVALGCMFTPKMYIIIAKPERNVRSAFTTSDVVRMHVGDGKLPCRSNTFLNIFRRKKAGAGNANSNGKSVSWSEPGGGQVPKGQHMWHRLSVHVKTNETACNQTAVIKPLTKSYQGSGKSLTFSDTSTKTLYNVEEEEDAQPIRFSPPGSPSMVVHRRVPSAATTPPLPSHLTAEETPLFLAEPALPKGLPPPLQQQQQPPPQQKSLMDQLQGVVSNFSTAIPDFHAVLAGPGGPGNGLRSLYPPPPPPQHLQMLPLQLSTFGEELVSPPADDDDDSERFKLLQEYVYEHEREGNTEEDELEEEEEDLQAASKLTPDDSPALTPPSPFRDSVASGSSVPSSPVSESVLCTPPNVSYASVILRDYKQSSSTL
pIC50: −log10 of the molar value.

# compound, target system, pIC50
data = [
    ("Cc1c(-c2cccc(C(=O)OC(C)C)c2)nnn1-c1cccnc1", "Metabotropic glutamate receptor 1 (Homo sapiens, UniProt Q13255)", 5.62),
    ("Cc1c(-c2ccc3c(c2)CN(C(C)C)C3=O)nnn1-c1cccnc1F", "Metabotropic glutamate receptor 1 (Homo sapiens, UniProt Q13255)", 8.26),
    ("Cc1c(-c2ccc3ncccc3c2)nnn1-c1cccnc1", "Metabotropic glutamate receptor 1 (Homo sapiens, UniProt Q13255)", 8.31),
    ("CCCN1Cc2cc(-c3nnn(-c4cccnc4F)c3C)ccc2C1=O", "Metabotropic glutamate receptor 1 (Homo sapiens, UniProt Q13255)", 8.44),
    ("Cc1c(-c2ccc(C(=O)NC(C)C)cc2)nnn1-c1cccnc1", "Metabotropic glutamate receptor 1 (Homo sapiens, UniProt Q13255)", 6.68),
    ("Cc1c(-c2ccc3c(c2)CC(C2CC2)C3=O)nnn1-c1cccnc1 (stereo not given)", "Metabotropic glutamate receptor 1 (Homo sapiens, UniProt Q13255)", 8.59),
    ("Cc1c(-c2ccc3c(c2)CCC3=O)nnn1-c1cccnc1", "Metabotropic glutamate receptor 1 (Homo sapiens, UniProt Q13255)", 7.16),
    ("Cc1c(-c2ccc3ccccc3c2)nnn1-c1cccnc1", "Metabotropic glutamate receptor 1 (Homo sapiens, UniProt Q13255)", 6.52),
    ("CC(=O)c1ccc(-c2nnn(-c3cccnc3)c2C)cc1", "Metabotropic glutamate receptor 1 (Homo sapiens, UniProt Q13255)", 6.33),
    ("Cc1c(-c2ccc(C(=O)C3CC3)cc2)nnn1-c1cccnc1", "Metabotropic glutamate receptor 1 (Homo sapiens, UniProt Q13255)", 7.66),
    ("CCN1Cc2cc(-c3nnn(-c4cccnc4F)c3C)ccc2C1=O", "Metabotropic glutamate receptor 1 (Homo sapiens, UniProt Q13255)", 8.48),
    ("Cc1c(-c2ccc(C(=O)N3CCCC3)cc2)nnn1-c1cccnc1", "Metabotropic glutamate receptor 1 (Homo sapiens, UniProt Q13255)", 5.74),
    ("Cc1c(-c2ccc3c(c2)CN(C2CC2)C3=O)nnn1-c1cccnc1F", "Metabotropic glutamate receptor 1 (Homo sapiens, UniProt Q13255)", 8.46),
    ("Cc1nc2cc(-c3nnn(-c4cccnc4)c3C)ccc2s1", "Metabotropic glutamate receptor 1 (Homo sapiens, UniProt Q13255)", 5.82),
    ("Cc1c(-c2ccc3[nH]ccc3c2)nnn1-c1cccnc1", "Metabotropic glutamate receptor 1 (Homo sapiens, UniProt Q13255)", 6.60),
    ("Cc1c(-c2ccc(C(=O)N(C)C(C)C)cc2)nnn1-c1cccnc1", "Metabotropic glutamate receptor 1 (Homo sapiens, UniProt Q13255)", 6.06),
    ("CCC(=O)c1ccc(-c2nnn(-c3cccnc3)c2C)cc1", "Metabotropic glutamate receptor 1 (Homo sapiens, UniProt Q13255)", 6.77),
    ("Cc1c(-c2ccc(C(=O)c3ccccc3)cc2)nnn1-c1cccnc1", "Metabotropic glutamate receptor 1 (Homo sapiens, UniProt Q13255)", 5.41),
    ("Cc1c(-c2ccc3c(c2)CC(C)(C)C3=O)nnn1-c1cccnc1", "Metabotropic glutamate receptor 1 (Homo sapiens, UniProt Q13255)", 7.96),
    ("Cc1c(-c2ccc(C(=O)OC(C)C)cc2)nnn1-c1cccnc1", "Metabotropic glutamate receptor 1 (Homo sapiens, UniProt Q13255)", 7.48),
]

====

target: UniProtKB Q14416; test: Antagonist activity at human mGluR2 receptor expressed in CHO cell membranes assessed as inhibition of L-glutamate-induced calcium mobilization by FLIPR; assay type: functional, cell-based
Sequence (Q14416 whole entry): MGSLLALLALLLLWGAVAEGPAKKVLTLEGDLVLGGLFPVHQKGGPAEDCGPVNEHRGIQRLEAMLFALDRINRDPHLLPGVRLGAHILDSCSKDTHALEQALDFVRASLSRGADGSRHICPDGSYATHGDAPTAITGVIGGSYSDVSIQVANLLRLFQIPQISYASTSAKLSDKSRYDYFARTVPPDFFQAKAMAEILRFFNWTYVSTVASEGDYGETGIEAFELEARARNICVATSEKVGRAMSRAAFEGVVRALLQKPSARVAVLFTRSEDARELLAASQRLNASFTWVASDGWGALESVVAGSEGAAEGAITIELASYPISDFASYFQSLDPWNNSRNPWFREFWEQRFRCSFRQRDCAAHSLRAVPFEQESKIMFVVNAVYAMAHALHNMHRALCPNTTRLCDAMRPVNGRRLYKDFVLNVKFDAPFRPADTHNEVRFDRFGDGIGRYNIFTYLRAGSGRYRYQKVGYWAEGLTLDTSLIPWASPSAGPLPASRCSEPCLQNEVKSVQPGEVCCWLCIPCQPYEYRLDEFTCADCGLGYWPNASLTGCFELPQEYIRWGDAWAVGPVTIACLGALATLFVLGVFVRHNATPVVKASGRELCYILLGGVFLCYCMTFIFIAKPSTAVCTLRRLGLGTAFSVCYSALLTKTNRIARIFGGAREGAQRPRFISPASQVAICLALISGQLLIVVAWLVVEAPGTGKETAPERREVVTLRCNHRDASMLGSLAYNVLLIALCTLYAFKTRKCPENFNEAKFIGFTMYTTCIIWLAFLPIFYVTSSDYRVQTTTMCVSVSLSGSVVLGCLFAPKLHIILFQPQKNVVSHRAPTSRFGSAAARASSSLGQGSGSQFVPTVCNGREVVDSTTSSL
pIC50: −log10 of the molar value.
measurement type: pIC50

# query smiles, target system, experimental value
rows = [
    ("Cc1c(-c2ccc3c(c2)CN(C(C)C)C3=O)nnn1-c1ccc(F)cc1F", "UniProtKB Q14416", "< 5.00"),
]

====

test: Oral bioavailability in rat at 3 mg/kg; format: ADME, organism-based; settings: in vivo

# query smiles, bioavailability / %
data = [
    ("Cc1c(-c2ccc3c(c2)CN(C(C)C)C3=O)nnn1-c1cccnc1F", 96),
    ("Cc1c(-c2ccc3c(c2)CN(C2CC2)C3=O)nnn1-c1cccnc1F", 100),
    ("CCCN1Cc2cc(-c3nnn(-c4cccnc4F)c3C)ccc2C1=O", 100),
    ("CCN1Cc2cc(-c3nnn(-c4cccnc4F)c3C)ccc2C1=O", 62),
]

====

A collection of molecules and their measured clearance
assay: Plasma clearance in rat at 3 mg/kg, po and 1 mg/kg, iv; type: ADME, organism-based

# query smiles, display unit, clearance
rows = [
    ("Cc1c(-c2ccc3c(c2)CN(C2CC2)C3=O)nnn1-c1cccnc1F", "mL/min/kg", 8.1),
    ("CCCN1Cc2cc(-c3nnn(-c4cccnc4F)c3C)ccc2C1=O", "mL/min/kg", 5.5),
    ("CCN1Cc2cc(-c3nnn(-c4cccnc4F)c3C)ccc2C1=O", "mL/min/kg", 19),
    ("Cc1c(-c2ccc3c(c2)CN(C(C)C)C3=O)nnn1-c1cccnc1F", "mL/min/kg", 5.9),
]

====

test: Half life in rat at 1 mg/kg, po and 0.3 mg/kg, iv; assay type: ADME, organism-based; details: in vivo
measurement type: half-life (min)

# query smiles, measurement type, experimental value
measured = [
    ("Cc1c(-c2ccc3c(c2)CN(C(C)C)C3=O)nnn1-c1ccc(F)cc1F", "half-life", 42),
]

====

experiment: Half life in rat at 3 mg/kg, po and 1 mg/kg, iv; type: ADME, organism-based; details: in vivo
Assign labels as follows, please: 1 for half-life below 60 min; 0 for half-life equal to or exceeding 60 min.

# query smiles, assigned label
records = [
    ("Cc1c(C2=CCN(C(=O)N(C)C(C)C)CC2)nnn1-c1cccnc1F", 1),
    ("Cc1c(-c2ccc3c(c2)CN(C(C)C)C3=O)nnn1-c1cccnc1F", 0),
    ("CCN1Cc2cc(-c3nnn(-c4cccnc4F)c3C)ccc2C1=O", 1),
    ("Cc1c(-c2ccc3c(c2)CN(C2CC2)C3=O)nnn1-c1cccnc1F", 1),
]

====

A collection of molecules and their measured IC50
molecular target: Metabotropic glutamate receptor 5 (Homo sapiens); test: Antagonist activity at human mGluR5 receptor expressed in CHO cell membranes assessed as inhibition of L-glutamate-induced calcium mobilization by FLIPR; type: functional, cell-based
Sequence (P41594 whole entry): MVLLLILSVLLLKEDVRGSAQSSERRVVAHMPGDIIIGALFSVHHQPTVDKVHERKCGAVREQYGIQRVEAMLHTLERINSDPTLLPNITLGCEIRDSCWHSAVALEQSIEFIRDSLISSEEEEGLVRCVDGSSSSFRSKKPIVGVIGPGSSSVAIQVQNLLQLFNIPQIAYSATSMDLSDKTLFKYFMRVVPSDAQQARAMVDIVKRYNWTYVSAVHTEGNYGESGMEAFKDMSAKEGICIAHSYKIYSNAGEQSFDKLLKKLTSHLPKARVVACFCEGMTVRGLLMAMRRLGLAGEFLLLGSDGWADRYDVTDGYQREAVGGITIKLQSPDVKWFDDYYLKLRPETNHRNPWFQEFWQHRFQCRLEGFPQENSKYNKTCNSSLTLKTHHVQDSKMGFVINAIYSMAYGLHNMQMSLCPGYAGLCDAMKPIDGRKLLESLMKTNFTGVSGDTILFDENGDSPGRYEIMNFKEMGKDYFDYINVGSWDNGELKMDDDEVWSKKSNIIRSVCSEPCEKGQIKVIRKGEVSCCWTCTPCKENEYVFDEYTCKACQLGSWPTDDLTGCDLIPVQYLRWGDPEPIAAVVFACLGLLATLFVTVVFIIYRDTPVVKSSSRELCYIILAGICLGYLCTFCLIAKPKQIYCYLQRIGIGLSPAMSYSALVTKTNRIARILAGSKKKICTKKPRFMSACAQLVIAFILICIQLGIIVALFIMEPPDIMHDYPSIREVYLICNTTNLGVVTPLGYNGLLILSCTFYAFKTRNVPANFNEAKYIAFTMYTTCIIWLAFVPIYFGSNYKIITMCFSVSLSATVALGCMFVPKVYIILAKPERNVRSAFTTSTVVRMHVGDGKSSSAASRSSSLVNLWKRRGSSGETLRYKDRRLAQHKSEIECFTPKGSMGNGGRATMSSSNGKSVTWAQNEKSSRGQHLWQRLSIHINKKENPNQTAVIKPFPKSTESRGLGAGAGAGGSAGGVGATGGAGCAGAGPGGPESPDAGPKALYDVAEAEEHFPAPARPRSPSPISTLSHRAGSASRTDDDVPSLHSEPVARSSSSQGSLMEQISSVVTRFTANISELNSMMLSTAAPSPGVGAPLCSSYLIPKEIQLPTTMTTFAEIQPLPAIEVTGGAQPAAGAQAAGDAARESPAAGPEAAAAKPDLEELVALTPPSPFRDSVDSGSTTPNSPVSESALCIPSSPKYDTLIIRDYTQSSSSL

# query smiles, comparison operator, IC50 [nM]
records = [
    ("CCN1Cc2cc(-c3nnn(-c4cccnc4F)c3C)ccc2C1=O", "=", 1100),
    ("CCCN1Cc2cc(-c3nnn(-c4cccnc4F)c3C)ccc2C1=O", "=", 2800),
    ("Cc1c(-c2ccc3c(c2)CN(C(C)C)C3=O)nnn1-c1cccnc1F", "=", 2300),
    ("Cc1c(C2=CCN(C(=O)N(C)C(C)C)CC2)nnn1-c1cccnc1F", ">", 10000),
    ("Cc1c(-c2ccc3c(c2)CN(C2CC2)C3=O)nnn1-c1cccnc1F", "=", 5400),
]

====

test: Octanol to water distribution coefficient, log D at pH 7.4; assay type: physicochemical
measurement type: logD

# query smiles, experimental value
measured = [
    ("CCN1Cc2cc(-c3nnn(-c4cccnc4F)c3C)ccc2C1=O", 1.8),
    ("Cc1c(-c2ccc3c(c2)CN(C(C)C)C3=O)nnn1-c1cccnc1F", 2.2),
    ("CCCN1Cc2cc(-c3nnn(-c4cccnc4F)c3C)ccc2C1=O", 2.3),
    ("Cc1c(-c2ccc3c(c2)CN(C2CC2)C3=O)nnn1-c1cccnc1F", 1.9),
]
